target: interaction of GATOR2 with CASTOR1-CASTOR2 heterodimer (Homo sapiens, UniProt Q8WTX7); construct: GATOR2 is the cells' endogenous complex, co-immunoprecipitated on anti-HA beads; assay: In vitro CASTOR-GATOR2 dissociation assay; conditions: purified complexes from amino acid starved HEK-293T cells; CASTOR1-CASTOR2 heterodimer; read-out: arginine concentration for half-maximal disruption of GATOR2 interaction
Sequence (Q8WTX7 whole entry): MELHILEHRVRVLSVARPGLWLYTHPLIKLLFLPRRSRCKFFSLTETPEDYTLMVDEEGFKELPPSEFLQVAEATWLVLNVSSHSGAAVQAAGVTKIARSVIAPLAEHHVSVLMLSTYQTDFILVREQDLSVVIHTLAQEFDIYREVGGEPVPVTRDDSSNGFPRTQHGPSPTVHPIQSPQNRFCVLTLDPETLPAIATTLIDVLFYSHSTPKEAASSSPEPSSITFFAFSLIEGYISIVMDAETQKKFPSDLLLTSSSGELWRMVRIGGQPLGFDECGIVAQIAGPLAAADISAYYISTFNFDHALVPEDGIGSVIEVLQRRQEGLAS
Sequence (A6NHX0 whole entry partner): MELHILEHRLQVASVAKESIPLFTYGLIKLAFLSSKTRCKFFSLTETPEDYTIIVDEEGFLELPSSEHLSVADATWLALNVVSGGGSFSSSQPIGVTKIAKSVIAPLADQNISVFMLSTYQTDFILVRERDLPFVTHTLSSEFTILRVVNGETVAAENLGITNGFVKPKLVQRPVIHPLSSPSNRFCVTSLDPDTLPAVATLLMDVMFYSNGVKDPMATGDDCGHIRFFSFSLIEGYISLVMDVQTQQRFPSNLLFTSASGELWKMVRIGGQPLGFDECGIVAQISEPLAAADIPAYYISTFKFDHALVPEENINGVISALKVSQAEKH
pEC50: −log10 of the molar value.

# entry_smiles, pEC50
measured = [
    ("N=C(N)NCCC[C@H](N)C(=O)O", "4.40 to 4.70"),
]
